# MEASURED ON: Peroxisome proliferator-activated receptor alpha (Homo sapiens, UniProt Q07869)
# Sequence (Q07869 whole entry, the tested form may be a part): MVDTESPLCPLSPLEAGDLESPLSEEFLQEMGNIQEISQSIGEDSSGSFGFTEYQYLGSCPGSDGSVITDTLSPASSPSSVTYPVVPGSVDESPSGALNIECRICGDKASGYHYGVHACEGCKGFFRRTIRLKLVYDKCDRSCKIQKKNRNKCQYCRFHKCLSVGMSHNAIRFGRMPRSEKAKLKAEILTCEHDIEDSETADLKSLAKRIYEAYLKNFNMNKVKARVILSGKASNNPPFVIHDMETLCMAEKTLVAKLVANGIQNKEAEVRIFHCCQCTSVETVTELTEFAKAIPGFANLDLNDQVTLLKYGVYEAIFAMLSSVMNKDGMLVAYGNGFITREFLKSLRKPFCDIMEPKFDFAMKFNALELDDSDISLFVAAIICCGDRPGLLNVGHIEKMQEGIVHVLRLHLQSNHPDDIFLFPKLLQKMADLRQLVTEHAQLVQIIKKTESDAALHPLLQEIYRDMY
# ASSAY NOTES: Transactivation of GAL4-fused Homo sapiens (human) PPARalpha […] expressed in African green monkey CV1 cells by luciferase reporter gene assay
# Type: cell-based, CV-1
# MEASUREMENT PARAMETERS: read-out: EC50
OBSERVABLE: pEC50
Give bare numbers, as −log10 of the molar value.

Here's what some known entries look like.
substance_smiles=Cc1oc(-c2ccccc2)nc1CCOc1ccc(C[C@@]2(C(=O)O)CCOCCO2)cc1 observable=pEC50 reported_value=5.16
substance_smiles=COC(=O)c1ccccc1[C@@](O)(Cc1ccc(OCCc2nc(-c3ccccc3)oc2C)cc1)C(=O)O observable=pEC50 reported_value=5.46
substance_smiles=Cc1sc(-c2ccccc2)nc1CCOc1ccc(C[C@@](O)(C(=O)O)c2ccccc2C(=O)c2ccccc2)cc1 observable=pEC50 reported_value=5.98
substance_smiles=Cc1oc(-c2ccccc2)nc1CCOc1ccc(C[C@@](O)(C(=O)O)c2ccccc2C(=O)c2ccccc2)cc1 observable=pEC50 reported_value=6.34

# input for lookup
Task: Entry Cc1sc(N2CCN(C)CC2)nc1CCOc1ccc(C[C@@](O)(C(=O)O)c2ccccc2C(=O)c2ccccc2)cc1 , system Peroxisome proliferator-activated receptor alpha (Homo sapiens, UniProt Q07869): what pEC50 was measured?
Result: 5.19
